- TARGET_UNDER_TEST: CDK9/CycT1 (Homo sapiens, UniProt P50750)
- Construct: Recombinant full-length His-tagged human CDK9 and CycT1; His
- Sequence (P50750 whole entry): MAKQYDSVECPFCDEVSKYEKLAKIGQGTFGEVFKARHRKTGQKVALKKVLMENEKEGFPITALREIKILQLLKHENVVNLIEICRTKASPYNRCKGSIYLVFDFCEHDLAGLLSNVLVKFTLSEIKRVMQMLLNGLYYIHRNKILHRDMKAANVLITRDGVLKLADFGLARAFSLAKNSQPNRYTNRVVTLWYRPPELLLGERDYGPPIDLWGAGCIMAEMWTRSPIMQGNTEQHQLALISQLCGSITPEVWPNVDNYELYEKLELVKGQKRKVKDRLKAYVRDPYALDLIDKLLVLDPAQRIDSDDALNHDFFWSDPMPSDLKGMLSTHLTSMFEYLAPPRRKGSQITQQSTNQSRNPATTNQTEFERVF
- Sequence (O60563 whole entry partner): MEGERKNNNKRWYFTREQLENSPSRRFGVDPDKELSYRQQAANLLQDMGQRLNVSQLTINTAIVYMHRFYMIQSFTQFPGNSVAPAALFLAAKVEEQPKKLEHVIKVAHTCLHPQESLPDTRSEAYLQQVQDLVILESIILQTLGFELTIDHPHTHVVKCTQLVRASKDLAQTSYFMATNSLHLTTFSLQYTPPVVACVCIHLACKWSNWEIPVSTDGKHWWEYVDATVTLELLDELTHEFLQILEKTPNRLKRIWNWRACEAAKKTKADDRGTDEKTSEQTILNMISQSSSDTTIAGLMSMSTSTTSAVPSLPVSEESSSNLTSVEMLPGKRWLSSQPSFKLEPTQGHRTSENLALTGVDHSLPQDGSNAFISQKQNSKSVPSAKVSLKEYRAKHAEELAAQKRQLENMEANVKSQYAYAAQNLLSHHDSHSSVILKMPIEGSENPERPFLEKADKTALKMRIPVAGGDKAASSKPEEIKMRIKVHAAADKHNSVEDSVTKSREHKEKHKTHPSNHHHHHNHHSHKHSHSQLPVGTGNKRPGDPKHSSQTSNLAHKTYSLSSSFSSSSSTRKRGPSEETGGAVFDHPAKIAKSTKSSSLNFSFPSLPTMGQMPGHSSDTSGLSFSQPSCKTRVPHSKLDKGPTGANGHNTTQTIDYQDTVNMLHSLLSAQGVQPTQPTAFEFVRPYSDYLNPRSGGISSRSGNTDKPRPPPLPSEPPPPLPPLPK
- ASSAY_PROCEDURE: CDK9/CycT1 kinase assay (TR-FRET)
- EXPERIMENTAL_CONDITIONS: Method 1, 10 μM ATP
Catalogue of compounds with associated IC50
Just the number in nM, nothing appended.

Solved cases (3 shown):
{"columns": ["STRUCTURE", "DATA_VALUE"],
 "data": [
  ["CS(=O)(=O)Cc1cccc(Nc2ncnc(-c3ccc(F)cc3OCc3cccnc3)n2)c1", 7],
  ["COc1ccc(F)cc1-c1ncnc(Nc2cccc(CS(C)(=O)=O)c2)n1", 33],
  ["CS(=O)(=O)Cc1cccc(Nc2ncnc(-c3ccccc3OC(F)(F)F)n2)c1", 330]
]}

Okay, now this compound:
Record CS(=O)(=O)Cc1cccc(Nc2ncnc(-c3ccc(F)cc3OCCCF)n2)c1 , field IC50: 29

###

- TARGET_UNDER_TEST: CDK9/CycT1 (Homo sapiens, UniProt P50750)
- Construct: Recombinant full-length His-tagged human CDK9 and CycT1; His
- ASSAY_PROCEDURE: CDK9/CycT1 kinase assay (TR-FRET)
- EXPERIMENTAL_CONDITIONS: Method 1, 10 μM ATP
- Source text: 1. CDK9/CycT1 Kinase Assay: CDK9/CycT1-inhibitory activity of compounds of the present invention was quantified employing the CDK9/CycT1 TR-FRET assay as described in the following paragraphs: Recombinant full-length His-tagged human CDK9 and CycT1, expressed in insect cells and purified by Ni-NTA affinity chromatography, were purchased from Invitrogen (Cat. No PV4131). As substrate for the kinase reaction biotinylated peptide biotin-Ttds-[…] […]
READOUT_KIND: IC50
Please format your answer as a value with the unit trailing.

Solved cases (3 shown):
{"columns": ["STRUCTURE", "IC50"],
 "data": [
  ["COc1c(-c2ncnc(Nc3cccc(CS(C)(=O)=O)c3)n2)ccc(F)c1F", "160 nM"],
  ["CS(=O)(=O)Cc1cccc(Nc2ncnc(-c3ccc(F)cc3OC3CCC3)n2)c1", "34 nM"],
  ["COc1cc(F)ccc1-c1ncnc(Nc2cccc(CS(=O)(=O)CCO)c2)n1", "12 nM"]
]}

Record COc1cc(F)ccc1-c1ncnc(Nc2cccc(CS(=O)(=O)C(C)(C)C)c2)n1 , field IC50: 47 nM

Record CS(=O)(=O)Cc1cccc(Nc2ncnc(-c3cccc4c3OC(F)(F)O4)n2)c1 , field IC50: 33 nM

###

- System: NCI-H460, human non-small cell lung carcinoma cells
- ASSAY_PROCEDURE: Proliferation assay (crystal violet), NCI-H460
- Format: cell-based
- EXPERIMENTAL_CONDITIONS: read-out: Inhibition of H460 cell proliferation (activity range)
READOUT_KIND: pIC50
In simple prose, pIC50 is minus the logarithm base ten of a concentration in moles per litre.

Record CS(=O)(=O)Cc1cccc(Nc2ncnc(-c3ccc(F)cc3OCc3cc(F)cc(F)c3F)n2)c1 , field pIC50: 6.51

Record CS(=O)(=O)Cc1cccc(Nc2ncnc(-c3cccc4c3OCCO4)n2)c1 , field pIC50: 6.14

Record CS(=O)(=O)Cc1cccc(Nc2ncnc(-c3ccc(F)cc3OCCF)n2)c1 , field pIC50: 6.21

Record CS(=O)(=O)Cc1cccc(Nc2ncnc(-c3ccc(Cl)cc3OC3CCCC3)n2)c1 , field pIC50: 6.14

Record Cc1cccc(COc2cc(F)ccc2-c2ncnc(Nc3cccc(CS(C)(=O)=O)c3)n2)c1 , field pIC50: 6.42

Record CS(=O)(=O)Cc1cccc(Nc2ncnc(-c3ccccc3OCc3cccc(Cl)c3)n2)c1 , field pIC50: 6.43

Record CS(=O)(=O)Cc1cccc(Nc2ncnc(-c3ccc(F)cc3OCc3ccc(C#N)cc3)n2)c1 , field pIC50: 7.22

Attribution: patent US8916557B2
